Reference source: ChEMBL document CHEMBL3046696

Assay: physchem
Conditions: octanol/water
Description: Octanol-water partition coefficient, log P of the compound
Each record here notes measured logP.
RECORDED_ENDPOINT: logP

* CCS(=O)(=O)N(C(=O)/C=C/c1ccc(OC(C)=O)c(OC(C)=O)c1)c1cccc2c(S(=O)(=O)Nc3ccccc3)cccc12 | 3.92
* CC(=O)Oc1ccc(/C=C/C(=O)Nc2cccc3c(S(=O)(=O)NCc4ccccc4)cccc23)cc1OC(C)=O | 4.1
* CC(=O)Oc1ccc(/C=C/C(=O)N(c2cccc3c(S(=O)(=O)Nc4ccc(S(=O)(=O)C(F)(F)F)cc4)cccc23)C(F)(F)F)cc1OC(C)=O | 6.03
* CC(=O)Oc1ccc(/C=C/C(=O)Nc2cccc3c(S(=O)(=O)Nc4cccc(C)c4C)cccc23)cc1OC(C)=O | 4.62
* O=C(/C=C/c1ccc(O)c(O)c1)Nc1cccc2c(S(=O)(=O)Nc3ccccc3)cccc12 | 4.46
* CC(=O)Oc1ccc(/C=C/C(=O)Nc2cccc3c(S(=O)(=O)NCCc4ccccc4)cccc23)cc1OC(C)=O | 3.76
* CC(=O)Oc1ccc(/C=C/C(=O)Nc2cccc3c(S(=O)(=O)Nc4ccc(C)cc4)cccc23)cc1OC(C)=O | 3.8
* O=C(/C=C/c1ccc(O)c(O)c1)Nc1cccc2c(S(=O)(=O)Nc3ccc(F)cc3)cccc12 | 4.57

---

Test: physchem
Conditions: octanol/water
Record 1 (yes) whenever logP is at 5 or higher; record 0 (no) when lower.

- CCc1cccc(NS(=O)(=O)c2cccc3c(NC(=O)/C=C/c4ccc(OC(C)=O)c(OC(C)=O)c4)cccc23)c1: 0 (no)
- CC(=O)Oc1ccc(/C=C/C(=O)Nc2cccc3c(S(=O)(=O)Nc4cccc([N+](=O)[O-])c4)cccc23)cc1OC(C)=O: 0 (no)
- O=C(/C=C/c1ccc(O)c(O)c1)Nc1cccc2c(S(=O)(=O)Nc3ccc(Cl)cc3)cccc12: 0 (no)
- CC(=O)Oc1ccc(/C=C/C(=O)Nc2cccc3c(S(=O)(=O)Nc4ccc(S(=O)(=O)C(F)(F)F)cc4)cccc23)cc1OC(C)=O: 0 (no)
- CCS(=O)(=O)c1ccc(NS(=O)(=O)c2cccc3c(N(C(=O)/C=C/c4ccc(OC(C)=O)c(OC(C)=O)c4)S(=O)(=O)C(F)(F)F)cccc23)cc1: 0 (no)
- CC(=O)Oc1ccc(/C=C/C(=O)N(c2cccc3c(S(=O)(=O)Nc4ccccc4)cccc23)C(F)(F)F)cc1OC(C)=O: 1 (yes)

---

Assay: physchem
Conditions: octanol/water
RECORDED_ENDPOINT: logP

• CCCc1ccccc1NS(=O)(=O)c1cccc2c(NC(=O)/C=C/c3ccc(OC(C)=O)c(OC(C)=O)c3)cccc12 = 4.92
• CCCCc1cc(NC(=O)/C=C/c2ccc(OC(C)=O)c(OC(C)=O)c2)c2cccc(S(=O)(=O)Nc3ccccc3)c2c1 = 5.32
• O=C(/C=C/c1ccc(O)c(O)c1)Nc1cccc2c(S(=O)(=O)NCc3ccccc3)cccc12 = 4.89
• Cc1ccccc1NS(=O)(=O)c1cccc2c(NC(=O)/C=C/c3ccc(O)c(O)c3)cccc12 = 4.6
• O=C(/C=C/c1ccc(O)c(O)c1)Nc1cccc2c(S(=O)(=O)NCCc3ccccc3)cccc12 = 4.13
• CC(=O)Oc1ccc(/C=C/C(=O)Nc2cccc3c(S(=O)(=O)Nc4ccc(F)cc4)cccc23)cc1OC(C)=O = 4.19
• CC(=O)Oc1ccc(/C=C/C(=O)Nc2cccc3c(S(=O)(=O)Nc4ccccc4)cccc23)cc1OC(C)=O = 3.66
• CC(=O)Oc1ccc(/C=C/C(=O)Nc2cccc3c(S(=O)(=O)Nc4ccc(SC(F)(F)F)cc4)cccc23)cc1OC(C)=O = 5.5
• CCCc1cccc(NS(=O)(=O)c2cccc3c(NC(=O)/C=C/c4ccc(OC(C)=O)c(OC(C)=O)c4)cccc23)c1 = 4.92
• CC(=O)Oc1ccc(/C=C/C(=O)N(c2cccc3c(S(=O)(=O)Nc4ccc(C(F)(F)F)cc4)cccc23)C(F)(F)F)cc1OC(C)=O = 6.54
• CC(=O)Oc1ccc(/C=C/C(=O)Nc2cccc3c(S(=O)(=O)Nc4ccc(Cl)cc4)cccc23)cc1OC(C)=O = 4.01
• CC(=O)Oc1ccc(/C=C/C(=O)Nc2cccc3c(S(=O)(=O)Nc4ccccc4C(F)(F)F)cccc23)cc1OC(C)=O = 4.55
• CC(=O)Oc1ccc(/C=C/C(=O)Nc2cccc3c(S(=O)(=O)Nc4ccc(C(C)C)cc4)cccc23)cc1OC(C)=O = 4.86
• CC(=O)Oc1ccc(/C=C/C(=O)N(c2ccccc2)c2cccc3c(S(=O)(=O)Nc4ccccc4)cccc23)cc1OC(C)=O = 5.59
• CCc1ccc(N(C(=O)/C=C/c2ccc(OC(C)=O)c(OC(C)=O)c2)c2cc(C(F)(F)F)cc3c(S(=O)(=O)Nc4ccc(S(=O)(=O)CC)cc4)cccc23)cc1 = 7.34
